Provide the recorded hIL11 - average signal for the entries that follow.
Molecular target: T1, Human IL-11 (human, UniProt P20809 22-199)
T1 construct: Recombinant human IL-11 (GenScript Cat. No. Z03108-1) or IL-11 secreted by human cells; the mature form is said to have 178 residues; also called recombinant human IL-11; endogenously produced IL-11
T1 sequence: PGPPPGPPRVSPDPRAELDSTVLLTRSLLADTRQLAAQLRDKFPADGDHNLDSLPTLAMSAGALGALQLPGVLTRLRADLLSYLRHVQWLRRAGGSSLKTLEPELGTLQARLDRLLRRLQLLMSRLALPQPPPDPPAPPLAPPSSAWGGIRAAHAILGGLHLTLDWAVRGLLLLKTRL
Assay: ELISA

Can you look up the measured hIL11 - average signal of YU112-D08 (antibody) QVQLVESGGGVVQPGRSLRLSCAASGFTFSSYGMHWVRQAPGKGLEWVAVISYDGSNKYYADSVEGRFTISRDNSKNTLYLQMNSLRAEDTAVYYCAKIGATDPLDYWGQGTLVTVSSGSASAPKLEEGEFSEARVQSALTQPRSVSGSPGQSVTISCTGTISDVGGYNYVSWYQQHPGKAPKLMIYDVTKRPSGVPDRFSGSKSGNTASLTISGLQAEDEAGYYCSSYAGSYTWVFGGGTELTVL for me? 0.418

# lookup: hIL11 - average signal of YU100-G10 (antibody) QVQLVQSGGGVVQPGRSLRLSCAASGFTFSSYGMHWVRQAPGKGLEWVAVISYDGSNKYYADSVKGRFTISRDNSKNTLYLQMNSLRAEDTAVYYCAKIGATDPLDYWGQGTLVTVSSGSASAPKLEEGEFSEARVQSALTQPASVSGSLGQSITMSCTGTRRDVGGYDFVSWYQQYPGKAPKLIIYDVSNRPSGVSNRFTGSKSGNTASLTISGLQAEDEADYYCCSYAGTYTWVFGGGTKVTVL 0.262

// lookup hIL11 - average signal for YU100-F06 (antibody) QVQLVESGGGVVQPGRSLRLSCAASGFTFSSYGMHWVRQAPGKGLEWVAVISYDGSNKYYADSVKGRFTISRDNSKNTLYLQMNSLRAEDTAVYYCARIMGYDYGDYDVVDYWGQGTLVTVSSGSASAPKLEEGEFSEARVQSALTQPRSVSGSPGQSVTISCTGSSSDVGGYNFVSWYRQHPGEAPKLVIFDVNKRPSGVPDRFSGSKSGNTASLTISGLQTEDEADYFCCSYAGGYTWVFGGGTKVTVV 0.16

Looking for the measured hIL11 - average signal of YU100-F07 (antibody) QVQLVESGGGVVQPGRSLRLSCAASGFTFSSYAMHWVRQAPGKGLEWVAVISYDGSNKYYADSVKGRFTISRDNSKNTLYLQMNSLRAEDTAVYYCARIMGYDYGDYDVVDYWGQGTLVTVSSGSASAPKLEEGEFSEARVQSALTQPRSVSVSPGQSVTISCTGTSSDVGGYEYVSWYQQHPGKAPKLMIYDVTKRPSGVPDRFSGSKSGNTASLTISGLQGEDAADYYCCSYAGSYTWVFGGGTTVTVL , can you help? 0.172

hIL11 - average signal lookup needed for YU112-G01 (antibody) QVQLVESGGGVVQPGRSLRLSCAASGFTFSSYGMHWVRQAPGKGLEWVAVISYDGSNKYYADSVKGRFTISRDNSKNTLYLQMNSLRAEDTAVYYCAKLSGPNGVDYWGQGTLVTVSSGSASAPKLEEGEFSEARVQSALTQPRSVSGSPGQSVTISCTGTISDVGGYNYVSWYQQHPGKAPKLMIYDVTKRPSGVPDRFSGSKSGNTASLTISGLQAEDEAGYYCSSYAGSYTWVFGGGTELTVL , thanks. 0.528

Recorded hIL11 - average signal for YU112-A07 (antibody) QVQLVESGGGVVQPGRSLRLSCAASGFTFSSYGMHWVRQAPGKGLEWVAVISYDGSNKYYTDSVKGRFTISRDNSKNTLYLQMNSLRAEDTAVYYCAKIGATDPLDYWGQGTLVTVSSGSASAPKLEEGEFSEARVQSALTQPRSVSGSPGQSVTISCTGTISDVGGYNYVSWYQQHPGKAPKLMIYDVTKRPSGVPDRFSGSKSGNTASLTISGLQAEDEAGYYCSSYAGSYTWVFGGGTELTVL , please? 0.438

Reported hIL11 - average signal for YU100-E12 (antibody) QVQLVESGGGVVQPGRSLRLSCAASGFTFSSYGMHWVRQAPGKGLEWVAVISYDGSNKYYADSVKGRFTISRDNSKNTLYLQMNSLRAEDTAVYYCAKIGATDPLDYWGQGTLVTVSSGSASAPKLEEGEFSEARVQSALTQPASVSGSPGQSITISCTGTSSDVGGYNYVSWYQQHPGTAPKLMIYDVSNRPSGVSNRFSGSKSGNTASLTISGLQAEDEADYYCSSYTSSTTWVFGGGTKLTVL : what is it? 0.426

Value lookup for hIL11 - average signal; key = YU100-A10 (antibody) EVQLVESGGGVVQPGRSLRLSCAASGFTFSSYGMHWVRQAPGKGLEWVAVISYDGSNKYYADSVKGRFTISRDNSKNTLYLQMNSLRAEDTAVYYCAKIGATDPLDYWGQGTLVTVSSGSASAPKLEEGEFSEARVLPVLTQPASVSGSPGQSITISCTGTSSDVGAYNYVSWYQQHPGKAPELMIYDVSNRPSGVSNRFSGSKSGNTASLTISGLQPEDEADYYCSSFTTSIAWVFGGGTKLTVL 0.443

Any idea what hIL11 - average signal was measured for YU100-E05 (antibody) EVQLVQSGGGVVQPGRSLRLSCAASGFTFSSYGMHWVRQAPGKGLEWVAVISYDGSNKYYADSVKGRFTISRDNSKNTLYLQMNSLRAEDTAVYYCAKIGATDPLDYWGQGTLVTVSSGSASAPKLEEGEFSEARVQAVLTQPRSVSGSPGQSVTISCTGTSSDVGGYNYVSWYQQHPGKAPKLMIYDVSKRPSGVPDRFSGSKSGNTASLTISGLQAEDEADYYCCSYAGSYSWVFGGGTKLTVLGQPKAAPSVTLFPPSS ? 0.16
